Test: Confirmatory screen GU Rhodamine qHTS for Zika virus inhibitors qHTS (AID 1347157); also: nearly all actives have a fitted effect of over 70% in size
Conditions: purified enzyme assay, Rhodamine110 substrate fluorescence, 15 min; series mostly up to 114 µM
Description: Avindra Nath, Ph.D., National Institute of Neurological Disorders and Stroke (NINDS), Bethesda, MD Radhakrishnan Padmanabhan, Ph.D., Georgetown University (GU), Washington D.C. Zika Virus causes congenital defects, including microcephaly and is associated with Guillain-Barre syndrome, eningoencephalitis and myelitis in infected adult. […]
Inconclusive results are not listed. Active and inactive are the calls of the source. Calls follow the shape of the dose curve; as a rule, active = well fitted inhibition curve with a large enough effect; inconclusive = small, poorly fitted or top-dose-only effect; inactive = flat fitted curve, though single readings scatter.
Give your call using only these classes: active, inactive

Prompt line: Fill in: this test's call for N#CC(C#N)=C(N)/C(C#N)=C/c1cc(O)c(O)c(O)c1 is ___
Response line: active

Prompt line: Fill in: this test's call for Cc1oc2c(cc(NS(=O)(=O)c3ccc(Cl)cc3)c3ccccc32)c1C(=O)OCc1ccccc1 is ___
Response line: active

Prompt line: Fill in: this test's call for COC(=O)c1ccc(C(=O)Nc2ccc(-c3nc4cc(NC(=O)c5ccc(C(=O)OC)cc5)ccc4o3)cc2)cc1 is ___
Response line: inactive

Prompt line: Fill in: this test's call for O=C(Nc1ccccc1C(F)(F)F)c1ccc2oc(=O)c(S(=O)(=O)c3ccc(F)cc3)cc2c1 is ___
Response line: inactive

Further cases:
Prompt line: Fill in: this test's call for O=c1c(O)c(Br)ccc2c(Br)c(O)c(O)c(O)c12 is ___
Response line: active

Prompt line: Fill in: this test's call for COC(=O)c1ccc(NC(=O)CSc2ccc(-c3sc(-c4ccccc4)nc3C)nn2)cc1 is ___
Response line: inactive

Prompt line: Fill in: this test's call for CCOC(=O)c1c(-c2ccccc2)oc2ccc(NS(=O)(=O)c3ccc(C(C)C)cc3)cc12 is ___
Response line: inactive

Prompt line: Fill in: this test's call for O=C(Nc1ccc(C(=O)OCc2cc(=O)n3c4c(sc3n2)CCCC4)cc1)c1ccccc1 is ___
Response line: inactive

Prompt line: Fill in: this test's call for CCOC(=O)c1ccc(NC(=O)c2nc(SCc3ccccc3F)ncc2Cl)cc1 is ___
Response line: inactive

Prompt line: Fill in: this test's call for COCCOC(=O)c1c(C)n(S(=O)(=O)c2ccc(C)cc2)c2ccc(NS(=O)(=O)c3ccc(C)cc3)cc12 is ___
Response line: inactive

Prompt line: Fill in: this test's call for O=C(O)c1cc(-c2ccc(C(F)(F)F)cc2)nc2n[nH]c(-c3ccccc3)c12 is ___
Response line: active
